Entry source: ChEMBL document CHEMBL3870318

Target: Cysteine protease ATG4B (Homo sapiens)
Sequence (Q9Y4P1 whole entry): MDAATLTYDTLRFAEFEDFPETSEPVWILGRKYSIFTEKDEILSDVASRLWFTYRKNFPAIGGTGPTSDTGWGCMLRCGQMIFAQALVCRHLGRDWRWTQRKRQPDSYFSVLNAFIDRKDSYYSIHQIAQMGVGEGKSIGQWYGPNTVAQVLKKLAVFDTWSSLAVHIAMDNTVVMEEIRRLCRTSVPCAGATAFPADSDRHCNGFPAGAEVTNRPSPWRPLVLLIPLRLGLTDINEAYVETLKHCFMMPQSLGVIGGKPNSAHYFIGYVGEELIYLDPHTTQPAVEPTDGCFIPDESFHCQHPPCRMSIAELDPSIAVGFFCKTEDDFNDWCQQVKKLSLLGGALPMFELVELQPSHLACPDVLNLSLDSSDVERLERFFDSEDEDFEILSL
Test: Inhibition of human recombinant GST-tagged Atg4B expressed in Escherichia coli using LC3B-GST as substrate after 6 mins by SDS-PAGE assay
quantity.kind: IC50

chem.smiles: O=C(O)C1=CC(=C(c2ccc(O)c(C(=O)O)c2)c2ccc(O)c(C(=O)O)c2)C=CC1=O
quantity.kind: IC50
meas.value: 38 to 45 µM
